ASSAY METHOD TEXT: soluble fraction after stress (log2 fold change); higher = more stays soluble; pooled small domains, quantitative proteomics
CONDITION DESCRIPTION: stress: pH 4
Short version: soluble fraction (log2) at least -0.008 is Criterion met, less is Criterion not met.

As a guide, the following entries are already answered.
HMQAVKQIKVERGMTLEKIAQSEFGDSTRWGEIVEVNNLRAPYISDDPTETRDGVLKPGSNLLIPIP; Criterion not met
HMSNGFFELKTSQQDELIDLIDSHTNFVRTKIEGELITAFLKLPMDAEEFNKLLFTNGIILSHLVKRK; Criterion not met
HMTQSGLTQWEFNMLRQALIEMLGEKPGSVFELARLLPLEQEKNVQALRFLLDHDDQFHLKDEYISFVKRT; Criterion not met
HMDDIHTFVYETETPFDPQKLDRYIGSLTAVYGQDMLRYKGILYFAGVDRRVVFQGVHMLAV; Criterion not met
HMNMANFARIRLILELHDRGMSQDEISRSRHMSRSTITTVLRTARKKGITYAGIRKLDDAALQKLFFPDR; Criterion met

Hi, just wondering whether HMTRPLVILEDVKFPSYNEIVSLTLPDGTRRGGQVLEVSGNKAIVQVFEGTSGIDVKDTHIELTKSS shows soluble fraction (log2) of -0.008 or higher.
Criterion met

Hi, just wondering whether HMTGKTTLEYLNPLLERGIPVWDYLAKASGKAKEEVQEMVSKGLVPGAEAAKAIADYMGAEFAGSMA shows soluble fraction (log2) of -0.008 or higher.
Criterion not met

---

ASSAY METHOD TEXT: soluble fraction after stress (log2 fold change); higher = more stays soluble; pooled small domains, quantitative proteomics
CONDITION DESCRIPTION: stress: pH 4
Let's look at some sequences and their measured soluble fraction (log2).
Lab note: jot down the number only; don't add units.

Answered cases to consult:
HMDSRQIIAALQARYADETGITALKIKFNNVLGYFVDVPARYGDPLMKPPLSETFIHRQTLASNVRF; -0.0558
HMPPAIKTLMFMIQNKSLLKSPKQLAVVQQQLKKIKGVRDVLILLEEGKVMLKVNKHETIHEASIIRLLGG; 0.00198

What does the data say about its soluble fraction (log2)? Entry: HMRETELPVTIISAGRILAENLHLAGRDGGWLEAELKRRSLTAEQVLLLTVDAAGTVYLVRKEDL
-0.617

What does the data say about its soluble fraction (log2)? Entry: HMITALLPGTVLIREFDGRDYHVTVATDGRFEMDGHKYPSLSAVAKHITGTQWSGPAFFGLN
-0.0323

---

ASSAY METHOD TEXT: soluble fraction after stress (log2 fold change); higher = more stays soluble; pooled small domains, quantitative proteomics
CONDITION DESCRIPTION: stress: pH 4
RECORDED METRIC: soluble fraction (log2)
Lab note: jot down the number only; don't add units.

Answered cases to consult:
HMNQASLTYSEFIANVESKAITRVTISGDTISGILADGKPFQTIYPMADLELLPILRRSGVDINVKEVQ; 0.22
HMLSKGDRVSWDTPQGRTQGEVVEKKTKDFEHDGQKFTASDDDPAFIVKSEKSGAEAAHKGSALNK; -0.0554

What does the data say about its soluble fraction (log2)? Entry: HMPNFDPSYILDFGDVIQLQLVGQKNQILEIPILRDGSVNLPDIGKIFLSGMSLEEATKIIKDTYSA
-1.28

What does the data say about its soluble fraction (log2)? Entry: HMNVAETITLGKRLFNHALTILGKKQRNISRKQLKNFLNDLGLKDSKDLYESIGTGDKNPILMAQLLLG
-0.0687

What does the data say about its soluble fraction (log2)? Entry: HMRIASANAIYDELLNKRDDAKLAELKQEDINLYALYILQNGSADERAALENTQGIDVVLKEIINLQNG
-0.416

What does the data say about its soluble fraction (log2)? Entry: HMDRNEFVSTLRAALTGAVSPAIVEDNVRYYQNYISQEIASGKSEKEVLDGLGDPRLIARTIIDT
0.14

What does the data say about its soluble fraction (log2)? Entry: HMDREILWTNYVAARKQEFIASSIDTIGAEYLDNRRFWDTQFEREWTIIAERLASGFGLTDDILSIVGSDF
-2.71

What does the data say about its soluble fraction (log2)? Entry: HMNEDFSEIIAAVKKFAVDNLSLSTLSDEELEEQIKTITDNMIGNRYVSIKNRVDIAQQVFSSIR
-0.435

---

ASSAY METHOD TEXT: soluble fraction after stress (log2 fold change); higher = more stays soluble; pooled small domains, quantitative proteomics
CONDITION DESCRIPTION: stress: pH 4
Let's look at some sequences and their measured soluble fraction (log2).
Lab note: jot down the number only; don't add units.

Answered cases to consult:
HMSNWTILIIQGSAHLIDLDSKITEIDGFGSFPTKILQDYNLNEEFEIFDTNVKMVNSVQSDLQSN; -1.97
HMKTKTFSPGEIVKIQTRDKSWQGTILESHDPEIILLKLTTGYNIGIRENEIINAKVIEKSKKDVKDAE; 0.176
HMNINLDINTYTVKELEKLLKLEVPYSDNNVFEKKNLMVKMIQTSTIAETKKEELYIFLDNIYNRLTNNLE; -0.942

// next item, soluble fraction (log2) requested
What does the data say about its soluble fraction (log2)? Entry: HMENDPYEILGIARSASDDEIKAKYRALTRENHPDILMAKGVPQEFIDLANEKMAVINAAYDKIEKER
0.12

---

ASSAY METHOD TEXT: soluble fraction after stress (log2 fold change); higher = more stays soluble; pooled small domains, quantitative proteomics
CONDITION DESCRIPTION: stress: pH 4
Let's look at some sequences and their measured soluble fraction (log2).
Lab note: jot down the number only; don't add units.

Answered cases to consult:
HMNVKVSVDDIARPGLMASGRVTFADGNRGMWYVDEMGRLGIDPEVEGYQPSEADIQAFQRELQSVMES; -0.927
HMTKQIILVHVAGKVKKPDVYPLLQGSRVADAIKAAGGAKKGVELNDINLARVLIDGEQVFVGYVPE; -0.277
HMSVALSENIKTRRKALKMSQEYVAEQLDISRQAVAKWEAGKSEPTTENLVKLAALFEMSVSELVE; 0.35
HMESLSHRQKSIVDWVQKNGYASIERMAEQFEVSAQTIRRDVIELSERRILQRHHGGASLPAG; -0.17
HMRTDQYHYLAWKQVADELGIPFDEQVNERLRGVSRMASFDIILERYDGTMSDEEKIHWTDKKNEIYKSM; -1.68
HMPVEFVKISIKPGHPWENQFVRDIVSLPDLLMVLILRGEERIIPNGNTKILVGDKIVLSALSPG; -1.4
HMERYFVLVIYDIVDNKKRLKLSKYLLGYGIRVQKSAFEMMITKEKYNKLIKELPTYIEEGEDSIRLY; -0.292

// next item, soluble fraction (log2) requested
What does the data say about its soluble fraction (log2)? Entry: HMSEFVIPLAKYNKALYTQVSLGMRFRMLFETEDSGVRRYMGTITGIGDLDPIRWKNSHWRNLQV
0.22

---

ASSAY METHOD TEXT: soluble fraction after stress (log2 fold change); higher = more stays soluble; pooled small domains, quantitative proteomics
CONDITION DESCRIPTION: stress: pH 4
Let's look at some sequences and their measured soluble fraction (log2).

HMSELLIVGSEQDNTRLDRFLADQYEEYTRSFLQKLIDQGNVSINGISVKKSGIKLKENDEIAVTLPEPQ; -0.588
HMRMETRILTADESGIRLDAFLASRLAVSRSLAASLIDDGNVTLNGTVPKKKTAVNVGDILEVAMP; 0.22
HMAIVNVEVPSLVGKTEQEARNLLTEAGLKVNVVNDEDESKNDGVVLRQSKDAGTEVQEGTTITITVNKVS; -0.467

What does the data say about its soluble fraction (log2)? Entry: HMEDLDKIISAYLDENPQIVSDYGKGNKKAVNSAIGFVMKSTGGKYSSSDIVDAVRSMIVSISV
-0.254

What does the data say about its soluble fraction (log2)? Entry: HMKKYLIIDAANEKIIFKIIDNNKTYTNDYENSRKNFDRFAVLLFNFLNKNMISFDTIDKAL
-0.19

What does the data say about its soluble fraction (log2)? Entry: HMRSDHVFTSHLARRDKYISELESLSDSARDDHIQTIKEEDEYLLKYRRTRNLFGIPLNDEMKQFEPFNY
-1.16

What does the data say about its soluble fraction (log2)? Entry: HMSGWIATGTATSTGNDVRVRSTPDATVNNNILLTLNKGNRFEIDGQTQNGFYHIKVNDTIGWISGLYVKE
0.0378

---

ASSAY METHOD TEXT: soluble fraction after stress (log2 fold change); higher = more stays soluble; pooled small domains, quantitative proteomics
CONDITION DESCRIPTION: stress: pH 4
RECORDED METRIC: soluble fraction (log2)
Lab note: jot down the number only; don't add units.

Answered cases to consult:
HMAALTADEAKQIALKHAGVAESDVQRLKVEQDRDDGRLLYEVEWDVGRTEYSYEIDANTGDILNYEKDV; -0.361
HMYNTDAMGVRIGELRRAKGLTQEAFAKTLGISAQAVSKWETGLGFPDISLLPMIAETLGTKIETLFGAE; -0.272
HMPLITAIELDSISARSFQFNTQSGSTYFIEGSTDLKSWDVIAEVKATDSTTTYEDHRKIYHEAYFYRVRL; -1.55
HMANKLTSTNLAKQHKMGLSEMYAELMNSGYLIEKDGKYELTPLGISIGGESKPNRYKKGEFYFLWPSDIS; 0.22
HMKIDLTPQEEKIYSVLETELTLDEIIMKTSIKAGEALAILMDLELKKLVASVAGGKYRRKA; 0.157
HMYEPPTEDEKRVLSLLATRESIVRSDVDRLLGVSQSTANRILKQMIEKYLISQEGTGKNTKYIK; -0.113

What does the data say about its soluble fraction (log2)? Entry: HMFTEPQKLVKRILNMLGHRYDDASIQARSDFQASNNYHKVQVKKKRESMEEYTAWLEEMYDAYRIN
0.0985

What does the data say about its soluble fraction (log2)? Entry: HMENQMIIYIDENDENKRLDSYLSEITPDYSRSKIQNFIKNGNVTVNDSNKKPSYLLKENDKISFELPQQ
-0.158
